Here, each record is paired with measured recombinant UMI read abundance (log10) data.
METHOD: recombinant UMI read abundance after kanamycin selection (control-corrected) (log10(CPM+1)); higher = more efficient recombination; extreme values may be limits of the assay; sequences stand for … in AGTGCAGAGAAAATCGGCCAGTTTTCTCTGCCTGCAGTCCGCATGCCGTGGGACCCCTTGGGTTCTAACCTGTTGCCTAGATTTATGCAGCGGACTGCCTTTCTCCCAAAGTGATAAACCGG…AGGTTGGTTTCACT; site = the 11-nt donor;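 also: IS621 bridge recombinase in Escherichia coli cells against a fixed T5 target plasmid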

>  <ENTRY SEQUENCE>
CCTATAGCATGGACCGGTTTTCCCGGTAATCCGTATTTGAT (site CCTAAAGCTAT)

>  <recombinant UMI read abundance (log10)>
0

$$$$
>  <ENTRY SEQUENCE>
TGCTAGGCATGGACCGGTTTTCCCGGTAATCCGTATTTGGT (site TGCTGGGCTAC)

>  <recombinant UMI read abundance (log10)>
0.0136

$$$$
>  <ENTRY SEQUENCE>
TCATACTCATGGACCGGTTTTCCCGGTAATCCGTATTTGCA (site TCATAGTCTTG)

>  <recombinant UMI read abundance (log10)>
1.54

$$$$
>  <ENTRY SEQUENCE>
CATTCCTCATGGACCGGTTTTCCCGGTAATCCGTATTTGCC (site CATTCCTCTGG)

>  <recombinant UMI read abundance (log10)>
1.47

$$$$
>  <ENTRY SEQUENCE>
TACTTGACATGGACCGGTTTTCCCGGTAATCCGTATTTGTG (site TACTTGACTCA)

>  <recombinant UMI read abundance (log10)>
0.00608

$$$$
>  <ENTRY SEQUENCE>
CCTTTTACATGGACCGGTTTTCCCGGTAATCCGTATTTGCT (site CCTTTTACTAG)

>  <recombinant UMI read abundance (log10)>
0

$$$$
>  <ENTRY SEQUENCE>
TTCCAGCCATGGACCGGTTTTCCCGGTAATCCGTATTTGTG (site TTCCAGCCTCA)

>  <recombinant UMI read abundance (log10)>
0.0201

$$$$
>  <ENTRY SEQUENCE>
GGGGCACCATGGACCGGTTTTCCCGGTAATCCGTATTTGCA (site GCGGCACCTTG)

>  <recombinant UMI read abundance (log10)>
0

$$$$
>  <ENTRY SEQUENCE>
GCCACGCCATGGACCGGTTTTCCCGGTAATCCGTATTTGTA (site GCCAAGCCTTA)

>  <recombinant UMI read abundance (log10)>
0.00579

$$$$
>  <ENTRY SEQUENCE>
TCAGACACATGGACCGGTTTTCCCGGTAATCCGTATTTGCG (site TCAGAAACTCG)

>  <recombinant UMI read abundance (log10)>
0

$$$$
>  <ENTRY SEQUENCE>
AGCTCTGCATGGACCGGTTTTCCCGGTAATCCGTATTTGGG (site AGCTCCGCTCC)

>  <recombinant UMI read abundance (log10)>
0.0101

$$$$
>  <ENTRY SEQUENCE>
CTAGGTACATGGACCGGTTTTCCCGGTAATCCGTATTTGAC (site TTAGGTACTGT)

>  <recombinant UMI read abundance (log10)>
0

$$$$
>  <ENTRY SEQUENCE>
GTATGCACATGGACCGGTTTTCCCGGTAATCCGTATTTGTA (site GTATGCACTTG)

>  <recombinant UMI read abundance (log10)>
1.71

$$$$
>  <ENTRY SEQUENCE>
TGTACACCATGGACCGGTTTTCCCGGTAATCCGTATTTGAC (site TTTACACCTGT)

>  <recombinant UMI read abundance (log10)>
0

$$$$
>  <ENTRY SEQUENCE>
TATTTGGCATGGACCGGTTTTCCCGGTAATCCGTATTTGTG (site TATCTGGCTCA)

>  <recombinant UMI read abundance (log10)>
0.00736

$$$$
>  <ENTRY SEQUENCE>
GAAGTCACATGGACCGGTTTTCCCGGTAATCCGTATTTGGG (site AAAGTCACTCC)

>  <recombinant UMI read abundance (log10)>
0.11

$$$$
>  <ENTRY SEQUENCE>
GCAGGTACATGGACCGGTTTTCCCGGTAATCCGTATTTGAC (site GCAGGTACTGT)

>  <recombinant UMI read abundance (log10)>
1.91

$$$$
>  <ENTRY SEQUENCE>
TCCGAGACATGGACCGGTTTTCCCGGTAATCCGTATTTGCG (site TCGGAGACTCG)

>  <recombinant UMI read abundance (log10)>
0.0214

$$$$
